Cited source: ChEMBL document CHEMBL1134783

target: D(3) dopamine receptor (Homo sapiens); assay: Binding affinity against dopamine receptor D3 in HEK 293 cells using [3H]spiperone radioligand; format: cell-based, HEK293
Sequence (P35462 whole entry): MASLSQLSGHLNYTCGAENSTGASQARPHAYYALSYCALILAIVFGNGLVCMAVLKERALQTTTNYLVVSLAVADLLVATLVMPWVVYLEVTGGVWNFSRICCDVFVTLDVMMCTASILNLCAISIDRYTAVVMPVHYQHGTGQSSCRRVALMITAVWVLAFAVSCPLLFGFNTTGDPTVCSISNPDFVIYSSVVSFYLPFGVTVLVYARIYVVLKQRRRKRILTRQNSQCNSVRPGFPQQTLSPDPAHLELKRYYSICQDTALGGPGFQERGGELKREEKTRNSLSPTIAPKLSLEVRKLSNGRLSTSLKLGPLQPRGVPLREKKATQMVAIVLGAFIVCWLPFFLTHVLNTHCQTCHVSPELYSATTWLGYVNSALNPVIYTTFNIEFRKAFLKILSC
pKi: −log10 of the molar value.
Classify by measured pKi: Condition met if it is equal to or exceeds 7, Condition not met if it is smaller.

Exam item: Please indicate if the recorded pKi for Cc1ccc(S(=O)(=O)n2cc3c4c(cccc42)[C@H](O)[C@@H](N(C)C)C3)cc1 meets or exceeds 7.
Marked response: Condition not met

Exam item: Please indicate if the recorded pKi for CN(C)CCc1cn(S(=O)(=O)c2ccccc2)c2ccccc12 meets or exceeds 7.
Marked response: Condition met

Exam item: Please indicate if the recorded pKi for NCCc1cccc2c1ccn2S(=O)(=O)c1ccccc1 meets or exceeds 7.
Marked response: Condition not met

Exam item: Please indicate if the recorded pKi for CN(C)CCc1cccc2c1ccn2S(=O)(=O)c1ccccc1 meets or exceeds 7.
Marked response: Condition not met

Exam item: Please indicate if the recorded pKi for CN(C)CCc1cn(C(=O)c2ccccc2)c2ccc(O)cc12 meets or exceeds 7.
Marked response: Condition not met

====

molecular target: 5-hydroxytryptamine receptor 7 (Homo sapiens, UniProt P34969); experiment: Binding affinity for 5-hydroxytryptamine 7 receptor human cloned receptors in CHO cells using [3H]5-HT
Sequence (P34969 whole entry): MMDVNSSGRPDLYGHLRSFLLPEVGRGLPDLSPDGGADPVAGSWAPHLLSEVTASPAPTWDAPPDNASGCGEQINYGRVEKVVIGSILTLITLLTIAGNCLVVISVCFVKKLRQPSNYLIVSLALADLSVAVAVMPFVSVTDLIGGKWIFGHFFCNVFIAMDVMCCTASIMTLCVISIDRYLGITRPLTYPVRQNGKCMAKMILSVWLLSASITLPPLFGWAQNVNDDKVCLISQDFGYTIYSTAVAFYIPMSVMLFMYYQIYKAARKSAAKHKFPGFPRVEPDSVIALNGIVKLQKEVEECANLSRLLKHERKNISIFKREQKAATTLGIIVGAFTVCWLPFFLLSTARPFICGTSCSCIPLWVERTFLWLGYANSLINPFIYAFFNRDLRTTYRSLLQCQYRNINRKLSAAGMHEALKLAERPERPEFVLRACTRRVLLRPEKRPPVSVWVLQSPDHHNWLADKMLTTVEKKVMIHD
measurement-type: Ki (µM)
A number alone suffices; assume µM.

Solved cases (2 shown):
# smiles-data, unit-string, Ki
data = [
    ("CN(C)CCc1cn(S(=O)(=O)c2ccccc2)c2ccccc12", "µM", 3.7),
    ("CN(C)CCc1cccc2c1ccn2S(=O)(=O)c1ccccc1", "µM", 0.46),
]

Exam item: Consider the molecule NCCc1cccc2c1ccn2S(=O)(=O)c1ccccc1 and give its measured Ki.
Marked response: 0.029

Exam item: Consider the molecule CCOC(=O)c1[nH]c2ccccc2c1CCN(C)C and give its measured Ki.
Marked response: 0.51

Exam item: Consider the molecule COc1ccc2c(c1)c(CCN(C)C)cn2S(=O)(=O)c1ccccc1 and give its measured Ki.
Marked response: 1.9

Exam item: Consider the molecule CN(C)CCc1cccc2c1cc(C(=O)c1ccccc1)n2S(=O)(=O)c1ccccc1 and give its measured Ki.
Marked response: 1.3

Exam item: Consider the molecule CN(C)CCc1cn(C(=O)c2ccccc2)c2ccc(O)cc12 and give its measured Ki.
Marked response: 1.6

====

target: 5-hydroxytryptamine receptor 1B (Homo sapiens, UniProt P28222); assay: Binding affinity against 5-hydroxytryptamine 1B receptor in CHO cells using [3H]5-HT as radioligand
Sequence (P28222 whole entry): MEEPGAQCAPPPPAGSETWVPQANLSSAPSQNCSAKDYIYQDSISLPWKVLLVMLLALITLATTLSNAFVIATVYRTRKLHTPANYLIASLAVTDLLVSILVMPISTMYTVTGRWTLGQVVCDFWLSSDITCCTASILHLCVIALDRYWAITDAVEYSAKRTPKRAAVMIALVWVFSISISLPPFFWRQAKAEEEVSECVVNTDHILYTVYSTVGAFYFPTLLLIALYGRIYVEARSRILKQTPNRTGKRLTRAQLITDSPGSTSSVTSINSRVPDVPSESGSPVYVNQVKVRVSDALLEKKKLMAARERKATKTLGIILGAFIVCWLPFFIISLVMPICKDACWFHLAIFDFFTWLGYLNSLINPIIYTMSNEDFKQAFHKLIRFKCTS
measurement-type: Ki (nM)
A number alone suffices; assume nM.

Solved cases (2 shown):
# smiles-data, measurement-type, unit-string, reading
data = [
    ("Cc1ccc(S(=O)(=O)n2cc3c4c(cccc42)[C@H](O)[C@@H](N(C)C)C3)cc1", "Ki", "nM", 3100),
    ("CN(C)CCc1cccc2c1cc(C(=O)c1ccccc1)n2S(=O)(=O)c1ccccc1", "Ki", "nM", 190),
]

Exam item: Consider the compound CN(C)CCc1cn(C(=O)c2ccccc2)c2ccc(O)cc12 and give its measured Ki.
Marked response: 420

Exam item: Consider the compound COc1ccc2c(c1)c(CCN(C)C)cn2S(=O)(=O)c1ccccc1 and give its measured Ki.
Marked response: 2200

Exam item: Consider the compound CCOC(=O)c1[nH]c2ccccc2c1CCN(C)C and give its measured Ki.
Marked response: 910

Exam item: Consider the compound CN(C)CCc1cn(S(=O)(=O)c2ccccc2)c2ccccc12 and give its measured Ki.
Marked response: 2300

Exam item: Consider the compound CN(C)CCc1cccc2c1ccn2S(=O)(=O)c1ccccc1 and give its measured Ki.
Marked response: 11

Exam item: Consider the compound NCCc1cccc2c1ccn2S(=O)(=O)c1ccccc1 and give its measured Ki.
Marked response: 6.5

====

target: 5-hydroxytryptamine receptor 6 (Homo sapiens); assay: Binding affinity as displacement of [3H]5-HT binding to 5-hydroxytryptamine 6 receptor in HeLa cells.; assay type: cell-based
Sequence (P50406 whole entry): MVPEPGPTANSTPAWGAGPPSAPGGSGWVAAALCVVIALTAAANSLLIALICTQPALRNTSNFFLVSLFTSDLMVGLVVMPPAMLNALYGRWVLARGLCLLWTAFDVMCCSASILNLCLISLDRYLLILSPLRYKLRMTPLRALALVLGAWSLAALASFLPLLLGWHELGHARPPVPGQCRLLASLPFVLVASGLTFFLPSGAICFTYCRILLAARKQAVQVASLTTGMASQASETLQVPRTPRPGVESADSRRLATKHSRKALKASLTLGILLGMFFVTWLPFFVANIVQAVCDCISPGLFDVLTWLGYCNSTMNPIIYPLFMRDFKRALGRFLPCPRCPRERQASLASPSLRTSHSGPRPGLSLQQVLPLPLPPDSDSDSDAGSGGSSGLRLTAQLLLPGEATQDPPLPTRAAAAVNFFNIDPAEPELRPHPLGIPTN
measurement-type: pKi
# log scale: pKi equals minus log10 of the concentration in mol/L

# smiles-data, target-of-assay, measurement-type, reading
rows = [
    ("COc1ccc2c(c1)c(CCN)cn2S(=O)(=O)c1ccccc1", "5-hydroxytryptamine receptor 6 (Homo sapiens)", "pKi", 7.40),
    ("COc1ccc2c(c1)c(CCN(C)C)cn2S(=O)(=O)c1ccc(C)cc1", "5-hydroxytryptamine receptor 6 (Homo sapiens)", "pKi", 7.35),
    ("COc1ccc2c(c1)c(CCN(C)C)cn2S(=O)(=O)c1cccc(Cl)c1", "5-hydroxytryptamine receptor 6 (Homo sapiens)", "pKi", 8.10),
    ("CN(C)CCc1cn(C(=O)c2ccccc2)c2ccc(O)cc12", "5-hydroxytryptamine receptor 6 (Homo sapiens)", "pKi", 7.27),
    ("COc1ccc2c(c1)c(CCN(C)C)cn2S(=O)(=O)c1ccc2ccccc2c1", "5-hydroxytryptamine receptor 6 (Homo sapiens)", "pKi", 8.01),
    ("CN(C)CCc1cn(C(=O)OC(C)(C)C)c2ccc(O)cc12", "5-hydroxytryptamine receptor 6 (Homo sapiens)", "pKi", 6.43),
    ("COc1ccc2c(c1)c(CCN(C)C)cn2S(=O)(=O)c1ccccc1Cl", "5-hydroxytryptamine receptor 6 (Homo sapiens)", "pKi", 7.96),
    ("CN(C)CCc1cccc2[nH]c(C(=O)c3ccccc3)cc12", "5-hydroxytryptamine receptor 6 (Homo sapiens)", "pKi", 6.59),
]

Exam item: Consider the compound CN(C)CCc1cn(S(=O)(=O)c2ccccc2)c2ccc(OCc3ccccc3)cc12 and give its measured pKi.
Marked response: 6.49

Exam item: Consider the compound CN(C)CCc1cn(S(=O)(=O)c2ccccc2)c2ccccc12 and give its measured pKi.
Marked response: 8.54

Exam item: Consider the compound COc1ccc(S(=O)(=O)n2cc(CCN(C)C)c3cc(OC)ccc32)cc1 and give its measured pKi.
Marked response: 7.59

====

Molecular target: 5-hydroxytryptamine receptor 1F (Homo sapiens, UniProt P30939)
Sequence (P30939 whole entry): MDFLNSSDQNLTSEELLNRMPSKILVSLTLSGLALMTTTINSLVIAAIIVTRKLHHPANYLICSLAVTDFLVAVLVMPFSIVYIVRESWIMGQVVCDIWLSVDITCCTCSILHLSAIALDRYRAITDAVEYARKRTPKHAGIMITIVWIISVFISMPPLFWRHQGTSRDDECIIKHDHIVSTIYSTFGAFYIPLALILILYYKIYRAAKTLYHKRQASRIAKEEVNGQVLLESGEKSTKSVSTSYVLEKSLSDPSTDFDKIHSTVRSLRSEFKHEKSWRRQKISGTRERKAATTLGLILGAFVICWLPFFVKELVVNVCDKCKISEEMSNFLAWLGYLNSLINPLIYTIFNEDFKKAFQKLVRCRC
Assay: Binding affinity against 5-hydroxytryptamine 1F receptor in CHO cells using [3H]5-HT radioligand
Assay type: cell-based
pKi: recorded values
# log scale: pKi equals minus log10 of the concentration in mol/L

Solved cases (5 shown):
# smiles-data, target-of-assay, pKi
measured = [
    ("COc1ccc2c(c1)c(CCN(C)C)cn2S(=O)(=O)c1ccccc1", "5-hydroxytryptamine receptor 1F (Homo sapiens, UniProt P30939)", 5.60),
    ("CN(C)CCc1cccc2c1ccn2S(=O)(=O)c1ccccc1", "5-hydroxytryptamine receptor 1F (Homo sapiens, UniProt P30939)", 8.41),
    ("CN(C)CCc1cn(S(=O)(=O)c2ccccc2)c2ccccc12", "5-hydroxytryptamine receptor 1F (Homo sapiens, UniProt P30939)", 6.11),
    ("CCOC(=O)c1[nH]c2ccccc2c1CCN(C)C", "5-hydroxytryptamine receptor 1F (Homo sapiens, UniProt P30939)", 5.70),
    ("CN(C)CCc1cccc2c1cc(C(=O)c1ccccc1)n2S(=O)(=O)c1ccccc1", "5-hydroxytryptamine receptor 1F (Homo sapiens, UniProt P30939)", 6.24),
]

Exam item: Consider the molecule NCCc1cccc2c1ccn2S(=O)(=O)c1ccccc1 and give its measured pKi.
Marked response: 7.33

====

target: D(4) dopamine receptor (Homo sapiens); experiment: Binding affinity against dopamine receptor D4 cloned in HEK 293 cells using [3H]spiperone radioligand
Sequence (P21917 whole entry): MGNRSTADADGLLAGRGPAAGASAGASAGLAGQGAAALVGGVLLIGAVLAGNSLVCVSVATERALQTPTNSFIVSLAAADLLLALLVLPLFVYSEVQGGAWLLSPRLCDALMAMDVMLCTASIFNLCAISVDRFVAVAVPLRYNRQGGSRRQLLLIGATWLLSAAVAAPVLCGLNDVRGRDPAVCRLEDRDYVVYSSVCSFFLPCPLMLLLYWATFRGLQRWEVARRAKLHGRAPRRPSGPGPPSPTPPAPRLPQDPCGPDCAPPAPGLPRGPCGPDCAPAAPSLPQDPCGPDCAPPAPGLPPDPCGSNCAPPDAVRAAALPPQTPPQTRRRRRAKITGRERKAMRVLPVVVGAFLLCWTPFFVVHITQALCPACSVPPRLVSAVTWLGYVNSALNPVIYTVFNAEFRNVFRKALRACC
pKi: −log10 of the molar value.
pKi: recorded values

Solved cases (3 shown):
# smiles-data, pKi
rows = [
    ("CN(C)CCc1cn(C(=O)c2ccccc2)c2ccc(O)cc12", "< 5.41"),
    ("COc1ccc2c(c1)c(CCN(C)C)cn2S(=O)(=O)c1ccccc1", "< 5.49"),
    ("NCCc1cccc2c1ccn2S(=O)(=O)c1ccccc1", "< 5.49"),
]

Exam item: Consider the compound CN(C)CCc1cccc2c1ccn2S(=O)(=O)c1ccccc1 and give its measured pKi.
Marked response: < 5.49

Exam item: Consider the compound CN(C)CCc1cn(S(=O)(=O)c2ccccc2)c2ccccc12 and give its measured pKi.
Marked response: < 5.49

Exam item: Consider the compound Cc1ccc(S(=O)(=O)n2cc3c4c(cccc42)[C@H](O)[C@@H](N(C)C)C3)cc1 and give its measured pKi.
Marked response: < 5.49

Exam item: Consider the compound CCOC(=O)c1[nH]c2ccccc2c1CCN(C)C and give its measured pKi.
Marked response: 5.80

Exam item: Consider the compound CN(C)CCc1cccc2c1cc(C(=O)c1ccccc1)n2S(=O)(=O)c1ccccc1 and give its measured pKi.
Marked response: < 5.49
